B1: DUSP5 (parent)
chain: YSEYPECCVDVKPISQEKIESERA

- Variants of: B1
- procedureText: protein stability index of a GFP-peptide fusion (GPS, HEK-293T) (PSI 1-6); higher = more stable;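 note: lentivirally expressed fusions sorted by FACS into six bins by GFP to DsRed ratio, PSI derived from sequencing read proportions per bin multiplied by bin number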
- appliedConditions: c terminus: a fixed tail appended
protein stability index for assorted variants
// return just the number, without any unit appended

| polymerSequence | protein stability index |
| --- | --- |
| YSEYPECCVDVKPISQKKIESERA [E17K] | 3.21 |

Please give the measured protein stability index for this variant: YSEYNECCVDVKPISQEKIESERA [P5N]
5.38

Please give the measured protein stability index for this variant: YSEYPECCVDVKPISQEKIESERE [A24E]
4.9

Please give the measured protein stability index for this variant: YSEYPECIVDVKPISQEKIESERA [C8I]
3.77

Please give the measured protein stability index for this variant: YSEYPECCVDVKPESQEKIESERA [I14E]
4.5

Please give the measured protein stability index for this variant: YSEYPECCVDVKPWSQEKIESERA [I14W]
3.9

Please give the measured protein stability index for this variant: YSEYPRCCVDVKPISQEKIESERA [E6R]
1.83

Please give the measured protein stability index for this variant: YSEYPECCVDVKPISQEKIESEQA [R23Q]
4.34

Please give the measured protein stability index for this variant: YSEYPECDVDVKPISQEKIESERA [C8D]
4.84

Please give the measured protein stability index for this variant: YSEYPWCCVDVKPISQEKIESERA [E6W]
3.98

Please give the measured protein stability index for this variant: YSEYPECCVDVKPISQEHIESERA [K18H]
4.41

Please give the measured protein stability index for this variant: YSEYPECCVDVKPISTEKIESERA [Q16T]
4.03

Please give the measured protein stability index for this variant: YSEYPECCVDVKPISQEKILSERA [E20L]
3.94

Please give the measured protein stability index for this variant: YSEYPECCVDVKPISQEKIESERW [A24W]
3.44

Please give the measured protein stability index for this variant: TSEYPECCVDVKPISQEKIESERA [Y1T]
5.23

Please give the measured protein stability index for this variant: YSEYPECCVDVKPISQEKIESENA [R23N]
4.34

Please give the measured protein stability index for this variant: YSEYPECCVDVPPISQEKIESERA [K12P]
4.32

Please give the measured protein stability index for this variant: YSEYPECCVDMKPISQEKIESERA [V11M]
4.09

Please give the measured protein stability index for this variant: YSEYPECCVDVKPIIQEKIESERA [S15I]
3.82
